# Assay Info: Reverse-phase thin-layer chromatographic lipophilicity (RF, RM0)
# Format: physicochemical
# Experimental Setup: RP-18 silica; VIII = 45%AC/50%H2O/5%HCl
Each item that follows carries a reported RF, Acetone/Water/Hydrochloric acid (conc.), mobile phase VIII.
Parameter Measured: RF, Acetone/Water/Hydrochloric acid (conc.), mobile phase VIII

| Compound | Numeric Value |
| --- | --- |
| CC(CCNCC12CC3CC(CC(C3)C1)C2)Nc1ccnc2ccccc12 (centres unmarked) | 0.29 |
| CC(CCNCC12CC3CC(CC(C3)C1)C2)Nc1ccnc2cc(C(F)(F)F)ccc12 (centres unmarked) | 0.23 |
| Clc1ccc2c(NCCCCN(CCC34CC5CC(CC(C5)C3)C4)CCC34CC5CC(CC(C5)C3)C4)ccnc2c1 | 0 |
| Clc1ccc2c(N3CCN(CC45CC6CC(CC(C6)C4)C5)CC3)ccnc2c1 | 0.35 |
| FC(F)(F)c1ccc2c(NCCCNCC34CC5CC(CC(C5)C3)C4)ccnc2c1 | 0.24 |

---

# Assay Info: Reverse-phase thin-layer chromatographic lipophilicity (RF, RM0)
# Type: physicochemical
# Experimental Setup: RP-18 silica; IX = 40%AC/55%H2O/5%HCl
Parameter Measured: RF, Acetone/Water/Hydrochloric acid (conc.), mobile phase IX

| Compound | Numeric Value |
| --- | --- |
| Clc1ccc2c(NCCCNCC34CC5CC(CC(C5)C3)C4)ccnc2c1 | 0.15 |
| Clc1ccc2c(Nc3cccc(NCC45CC6CC(CC(C6)C4)C5)c3)ccnc2c1 | 0.1 |
| Clc1ccc2c(NCCNCC34CC5CC(CC(C5)C3)C4)ccnc2c1 | 0.16 |
| Clc1ccc2c(N3CCN(CC45CC6CC(CC(C6)C4)C5)CC3)ccnc2c1 | 0.28 |
| Clc1ccc2c(Nc3ccc(NCC45CC6CC(CC(C6)C4)C5)cc3)ccnc2c1 | 0.11 |
| Clc1ccc2c(NCCCCCN(CCC34CC5CC(CC(C5)C3)C4)CCC34CC5CC(CC(C5)C3)C4)ccnc2c1 | 0 |
| CC(CCNCC12CC3CC(CC(C3)C1)C2)Nc1ccnc2cc(C(F)(F)F)ccc12 (centres unmarked) | 0.1 |
| Clc1ccc2c(NCCCCCCNCC34CC5CC(CC(C5)C3)C4)ccnc2c1 | 0.11 |
| Clc1ccc2c(NCCCCNCC34CC5CC(CC(C5)C3)C4)ccnc2c1 | 0.15 |
| Clc1ccc2c(N3CCN(CCC45CC6CC(CC(C6)C4)C5)CC3)ccnc2c1 | 0.17 |
| Clc1ccc2c(NCCCCCCCCNCC34CC5CC(CC(C5)C3)C4)ccnc2c1 | 0.04 |

---

# Assay Info: Reverse-phase thin-layer chromatographic lipophilicity (RF, RM0)
# Type: physicochemical
# Experimental Setup: RP-18 silica; III = 70%Dioxane/25%H2O/5%HCl
# Description: Chromatographic determination of lipophilicity Merck, Darmstadt, Germany). The mobile phase contained organic modifier (methanol, acetone or dioxane), water and hydrochloric acid. Methanol was varied in the range […] with an increment of 10%. […] before chromatogram development. The solvent developing distance was 4.5 cm. Detection of […] All experiments were performed at ambient temperature (22±2 °C). Retention parameters were calculated as previously described. […]
Parameter Measured: RF, Dioxane/Water/Hydrochloric acid (conc.), mobile phase III

| Molecule | Numeric Value |
| --- | --- |
| CC(CCNCC12CC3CC(CC(C3)C1)C2)Nc1ccnc2cc(C(F)(F)F)ccc12 (stereo not drawn) | 0.7 |
| CC(CCNCCC12CC3CC(CC(C3)C1)C2)Nc1ccnc2ccccc12 (stereo not drawn) | 0.7 |
| CC(CCNCCC12CC3CC(CC(C3)C1)C2)Nc1ccnc2cc(Cl)ccc12 (stereo not drawn) | 0.69 |
| FC(F)(F)c1ccc2c(NCCCNCC34CC5CC(CC(C5)C3)C4)ccnc2c1 | 0.7 |
| FC(F)(F)c1ccc2c(NCCNCC34CC5CC(CC(C5)C3)C4)ccnc2c1 | 0.7 |
| Clc1ccc2c(Nc3ccc(NCC45CC6CC(CC(C6)C4)C5)cc3)ccnc2c1 | 0.71 |
| Clc1ccc2c(NCCCN3CCN(CCCNCCC45CC6CC(CC(C6)C4)C5)CC3)ccnc2c1 | 0.71 |
| Clc1ccc2c(NCCCCCCCCNCC34CC5CC(CC(C5)C3)C4)ccnc2c1 | 0.7 |
| Clc1ccc2c(N3CCN(CCC45CC6CC(CC(C6)C4)C5)CC3)ccnc2c1 | 0.71 |
